Test: Primary qHTS for inhibitors of nuclear receptor binding SET domain protein 2 (NSD2) in an isogenic RCH-ACV NSD2 p.E1099K mutant (9B) (AID 1645876); further: nearly all actives have a fitted effect of over 70% in size
Conditions: RCH-ACV (leukaemia line) NSD2 E1099K (9B) viability, CellTiter-Glo, 72 h; series mostly up to 44.9 µM
Records with an inconclusive call do not appear. Calls of active or inactive are those of the source. The call rests on the fitted dose curve; in most records, active means well fitted inhibition curve with a large enough effect; inconclusive means small, poorly fitted or top-dose-only effect; inactive means flat fitted curve, though single readings scatter.
Log the outcome using a class from class 1 (active), class 0 (inactive)

Example entries begin here.
C/C=C(\C)C(=O)O[C@H]1C=C(CO)C(=O)[C@H](OC(C)=O)[C@H]1C(C)C	class 1
CN[C@@H]1[C@H](O[C@H]2[C@H](O[C@@H]3[C@@H](O)[C@H](O)[C@@H](N=C(N)N)[C@H](O)[C@H]3N=C(N)N)O[C@@H](C)[C@]2(O)CO)O[C@@H](CO)[C@H](O)[C@H]1O	class 0
COc1cccc(OCCCN)c1-c1cc(Nc2cnc(C#N)cn2)n[nH]1	class 1

Status in this test for CC(C)[C@@H](c1ccc(C(F)(F)F)cc1CN(Cc1cc(C(F)(F)F)cc(C(F)(F)F)c1)c1nnn(C)n1)N1CCC(C(=O)O)CC1 ?
class 1

In this assay, the call recorded for COc1cc(NC(=O)c2cccc(-n3cc(NC(=O)Nc4cccc(C)c4)cn3)c2)cc(OC)c1OC was what?
class 1

Recorded call for CC(=O)NC[C@H]1CN(c2ccc(N3CCSCC3)c(F)c2)C(=O)O1 ?
class 0

Which outcome was assigned to CC(C)CCNC(=O)[C@H](CC(C)C)NC(=O)[C@H]1O[C@@H]1C(=O)O in this test?
class 0

Per the records of this test, what outcome belongs to Cn1cc(-c2cnn3c(N)c(Br)c(C4CCCNC4)nc23)cn1 (stereo not drawn) ?
class 1

====

Tested on: OV90
Test: Primary qHTS to identify gynecologic anti-cancer compounds using libraries of approved drugs and bioactive compounds (AID 1345084); further: nearly all actives have a fitted effect of over 55% in size
Conditions: Gynecologic cancer cell panel viability, ATPlite luminescence, 48 h; series mostly up to 57.5 µM
Records with an inconclusive call do not appear. Active and inactive are the calls of the source. Calls come from the whole dose curve; as a rule, active = well fitted cell-killing curve with a large enough effect; inconclusive = small, poorly fitted or top-dose-only effect, or effect the other way; inactive = flat fitted curve, though single readings scatter.
Form entry, call: pick from label 1 for active, label 0 for inactive

Recorded results for 8 compounds are shown here.
c1ccc(-c2ccc(CNc3nc(-c4ccccn4)nnc3-c3ccccc3)cc2)cc1	label 1
C/C(=C\CCC(C)C1=CCC2(C)OC3=C(CC12)C(=O)C(O)CC3)CO (stereo not drawn)	label 0
C=C1C(=O)OC2/C=C(/C)C3=CC(=O)C(C)(CC(OC(=O)/C(C)=C/COC(C)=O)C12)O3 (stereo not drawn)	label 0
COc1ccc2nc3n[nH]c(C)c3c(NCCOCCO)c2c1	label 0
O=C(NCc1cccs1)c1cc2nc(-c3ccco3)cc(C(F)(F)Cl)n2n1	label 0
COc1ccc(CCCN2CCC(COC(c3ccccc3)c3ccccc3)CC2)cc1	label 0
CCC(C)C(=O)O[C@H]1[C@@H](OC(=O)c2ccoc2)C[C@](C)(O)[C@]23OC(C)(C)[C@H](C[C@H](OC(=O)c4ccoc4)[C@]12COC(C)=O)[C@H]3OC(C)=O (stereo partly drawn)	label 0
Nc1ncnc2c1c(-c1ccc(Cl)cc1)nn2-c1cccc(-c2cnnn2Cc2cccc(-c3ccccc3)c2)c1	label 0

// switching to the query compound
Kindly provide the recorded test outcome for the following compound: COC(=O)c1cc(Br)cnc1N1CCC(NC2CCCCC2)C(O)C1 (stereo not drawn)
label 0

====

Assay: Tertiary RLuc qRT-PCR qHTS assay for Zika virus inhibitors (AID 1347169); further: nearly all actives have a fitted effect of over 55% in size; further: potency means the concentration at half of the fitted maximal effect
Settings: infected Vero cells, reporter luminescence, 48-72 h; series mostly up to 45.9 µM
Inconclusive results are not listed. Activity calls are given as the source filed them. Calls come from the whole dose curve; as a rule, active = well fitted inhibition curve with a large enough effect; inconclusive = small, poorly fitted or top-dose-only effect; inactive = no such curve, though single readings can be large or run the other way.
reported property: Potency

Recorded Potency, per entry:
O=S(=O)(Nc1cc(Cl)c(Oc2cnc3ccccc3c2)c(Cl)c1)c1ccc(Cl)cc1Cl	9.3 µM (active)
CC(C)(C)Sc1c(CC(C)(C)C(=O)O)n(Cc2ccc(Cl)cc2)c2ccc(OCc3ccc4ccccc4n3)cc12	11.7 µM (active)
O=C(Nc1ccc(-c2ccc(Cl)c(Cl)c2)cc1)C1=C(O)c2ccccc2S(=O)(=O)N1	26.2 µM (active)
O=C(O)c1cccc(-c2ccc(-c3cn(C(=O)N4CCCCC4Cc4ccccc4)nn3)cc2)c1 (stereo not drawn)	2.62 µM (active)
CCC(C)/C=C(C)/C=C/C1=CC2=CC(=O)C3(C)OC(C)(O)C(C(=O)OC)C3C2=CO1 (stereo not drawn)	inactive
COc1ccc2cc(-c3cc(-c4cc(Cl)cc(Cl)c4)nn3C(C)c3ccc(C(=O)NCCC(=O)O)cc3)ccc2c1 (stereo not drawn)	inactive

So, Cc1cc(C)c2c(c1)C(N(Cc1cc(C(F)(F)F)cc(C(F)(F)F)c1)c1nnn(C)n1)CCCN2CC1CCC(C(=O)O)CC1 (stereo not drawn) ? Its Potency was 16.5 µM (active)

The recorded Potency for entry CCCCCCCOc1cc2c(cc1/C(C)=C/c1ccc(C(=O)O)cc1)C(C)(C)CCS2(=O)=O equals 2.94 µM (active)

Reported Potency of N#Cc1ccc(N2N=C3c4ccc(C(=O)O)cc4CC[C@@H]3[C@@H]2C2CCCC2)cc1Cl : 14.7 µM (active)

Entry CC(C)C[C@H](C(=O)O)c1cc(-c2ccc(C(F)(F)F)cc2)cc(-c2ccc(C(F)(F)F)cc2)c1 — recorded Potency = 9.3 µM (active)

Query COc1ccc2nccc(C(=O)CC[C@@H]3CCN(CC#Cc4cc(F)cc(F)c4F)C[C@@H]3C(=O)O)c2c1 yields Potency of inactive

The recorded Potency for entry COc1cc(C(=O)O)ccc1NC(=O)C1NC(CC(C)(C)C)C(C#N)(c2ccc(Cl)cc2F)C1c1cccc(Cl)c1F (stereo not drawn) equals 9.3 µM (active)

Sure, the documented Potency for CC1=C(C(=O)OC2CCCCC2)C(c2ccc([N+](=O)[O-])cc2)C2=C(CC(C)(C)CC2=O)N1 (stereo not drawn) is inactive

====

Test system: HaCat
Assay: Cytotoxic Profiling of Annotated Libraries Using Quantitative High-Throughput Screening (AID 1296008); further: on the % scale 0 is the no-effect control and ±100 the full control effect; nearly all actives have a fitted effect of over 60% in size
Conditions: Five cell lines viability, CellTiter-Glo ATP luminescence, 48-72 h; active compounds read low
Inconclusive results are not listed.
Listed here are molecules together with their documented max response.
Please give a number only; it is taken to be in %.

Answered cases to consult:
CC(C)(CNC(=O)c1cccc(-c2noc(C(F)(F)F)n2)c1)c1coc(-c2ccccc2)n1	-1.63
CC(=O)OC1CCC2(C)C(CCC3(C)C2CC=C2C4C(C)C(C)CCC4(C)CCC23C)C1(C)C(=O)O (stereo not drawn)	3.45

Record CC(=O)C1=CCC2C3CC=C4CC(O)CC(O)C4(C)C3C(O)CC12C (stereo not drawn) . Reported max response: 1.07

So, Cc1ccc(C)c(NS(=O)(=O)c2cc(C(=O)Nc3ccccc3-c3ccccc3)ccc2C)c1 ? Its max response was -22.2

// max response value for C[C@@H](O[C@H]1OCCN(Cc2nn(P(=O)(O)O)c(=O)[nH]2)[C@H]1c1ccc(F)cc1)c1cc(C(F)(F)F)cc(C(F)(F)F)c1 : -1.44

So, CC(=O)OC1C(=O)C2C3OCC4=C3[C@@](C)(CC[C@@H]4O)CC[C@]2(C)[C@H]1C(C)C (stereo partly drawn) ? Its max response was -13.7

The molecule listed as COc1c(C)cc(NC(=O)c2nn(Cc3ccc(F)cc3)c3c2CN(C(=O)c2ccc[nH]2)C[C@]3(C)C(N)=O)cc1C has a reported max response of -0.617

Entry C/C(=C\CCC(C)C1=CCC2(C)OC3=C(CC12)C(=O)C(O)CC3)CO (stereo not drawn) ; max response = -38

====

Tested on: HaCat
Experiment: Cytotoxic Profiling of Annotated Libraries Using Quantitative High-Throughput Screening (AID 1296008); further: on the % scale 0 is the no-effect control and ±100 the full control effect; nearly all actives have a fitted effect of over 60% in size
Settings: Five cell lines viability, CellTiter-Glo ATP luminescence, 48-72 h; active compounds read low
Records with an inconclusive call do not appear.
# Met = max response below -10% (exclusive); Not met = max response at/above -10%

Observe how each entry below is paired with its result.
Cn1cc(-c2ccc(S(=O)(=O)n3ccc(/C=C/C(=O)Nc4ccccc4N)c3)cc2)cn1	Met
CCC(C)CNCC(=O)N1CCc2sccc2C1COc1cccc(C)c1 (stereo not drawn)	Not met
O=C(Nc1ccccc1)c1ccc(Nc2nnc(-c3ccc(O)cc3)c3ccccc23)cc1	Not met
CC(=O)O[C@@H]1CC2C(/C=C(\C)C(=O)[C@@]3(O)C[C@@H](C)[C@H](OC(=O)c4ccccc4)C3/C=C/1C)C2(C)C (stereo partly drawn)	Not met
CCCn1ncc(CN2CCCC(C(=O)c3cccc(OC(C)C)c3)C2)c1C (stereo not drawn)	Not met
C[C@@H]1C[C@H](C)CN(CCC(=O)Nc2ccc(Br)cc2)C1	Not met
CC#C[C@@H](CC(=O)O)c1ccc(OCc2cccc(-c3ccc(C(F)(F)F)cc3)c2)cc1	Met
C=C(C)C(=O)O[C@H]1[C@H]2C(=C)C(=O)O[C@@H]2/C=C(\CO)CC/C=C(/C=O)[C@@H]1O	Met
C=CC(C)(O)CC[C@@H]1[C@@]2(C)CCCC(C)(C)C2CC[C@@]1(C)O (stereo partly drawn)	Met
Cn1cc(C2=C(c3coc4ccccc34)C(=O)NC2=O)c2cc(Br)ccc21	Not met

Is it true that max response reported for COC1=CC(=O)C[C@@H](C)[C@@]12Oc1c(Cl)c(OC)cc(OC)c1C2=O is less than -10%?
Met

Quick check: does O=C(NCC1(N2CCN(c3ccccc3)CC2)CCOCC1)c1cccnc1Sc1ccccc1 have max response under -10%?
Not met

Hello, the source for this data is PubChem BioAssay (NCATS), in case you need it.
